tested on: HAB1; test: Yeast two hybrid of pBD-PYR1 site saturation mutants with pACT-HAB1 on 10 μM ABA, β-galactosidase staining; assay type: cell-based, Arabidopsis; set-up: key: x: Mutations in PYR1 that disrupt ABA-induced binding to PYR1 to HAB1; conditions: S. cerevisiae Y190, 10 μM ABA; dead = lack of visible staining in comparison to wild type control
testReadout: Mutations in PYR1 that disrupt ABA-induced binding to PYR1 to HAB1

molecule	result
P148M: PYR1 mutant (protein, UniProt O49686 1-191, looked up, variant P148M) Abscisic acid receptor PYR1: MPSELTPEERSELKNSIAEFHTYQLDPGSCSSLHAQRIHAPPELVWSIVRRFDKPQTYKHFIKSCSVEQNFEMRVGCTRDVIVISGLPANTSTERLDILDDERRVTGFSIIGGEHRLTNYKSVTTVHRFEKENRIWTVVLESYVVDMMEGNSEDDTRMFADTVVKLNLQKLATVAEAMARNSGDGSGSQVT	x
F61R: PYR1 mutant (protein, UniProt O49686 1-191, looked up, variant F61R) Abscisic acid receptor PYR1: MPSELTPEERSELKNSIAEFHTYQLDPGSCSSLHAQRIHAPPELVWSIVRRFDKPQTYKHRIKSCSVEQNFEMRVGCTRDVIVISGLPANTSTERLDILDDERRVTGFSIIGGEHRLTNYKSVTTVHRFEKENRIWTVVLESYVVDMPEGNSEDDTRMFADTVVKLNLQKLATVAEAMARNSGDGSGSQVT	x
F159K: PYR1 mutant (protein, UniProt O49686 1-191, looked up, variant F159K) Abscisic acid receptor PYR1: MPSELTPEERSELKNSIAEFHTYQLDPGSCSSLHAQRIHAPPELVWSIVRRFDKPQTYKHFIKSCSVEQNFEMRVGCTRDVIVISGLPANTSTERLDILDDERRVTGFSIIGGEHRLTNYKSVTTVHRFEKENRIWTVVLESYVVDMPEGNSEDDTRMKADTVVKLNLQKLATVAEAMARNSGDGSGSQVT	x
